target: human adenosine A2a receptor (Homo sapiens); assay: Adenosine A2a Receptor Functional Assay (A2AGAL2); details: CHO-K1 cells, cAMP inducible beta-galactosidase reporter, 15 nM NECA agonist challenge
Sequence (P29274 whole entry): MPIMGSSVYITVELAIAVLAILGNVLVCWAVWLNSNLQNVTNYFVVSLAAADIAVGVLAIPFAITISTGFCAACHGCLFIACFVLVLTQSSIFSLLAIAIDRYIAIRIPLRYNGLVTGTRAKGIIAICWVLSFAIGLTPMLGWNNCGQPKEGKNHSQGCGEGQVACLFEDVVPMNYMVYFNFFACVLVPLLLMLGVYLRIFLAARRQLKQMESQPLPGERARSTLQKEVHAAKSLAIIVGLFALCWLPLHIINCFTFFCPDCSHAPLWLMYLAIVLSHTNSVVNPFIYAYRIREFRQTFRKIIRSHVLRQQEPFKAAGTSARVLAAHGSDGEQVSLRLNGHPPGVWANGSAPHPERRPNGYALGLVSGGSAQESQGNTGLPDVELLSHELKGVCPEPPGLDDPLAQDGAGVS
Classify by Ki. Ranges: lo (below 40 nM), med (40 nM to below 400 nM), hi (400 nM or more)

**Q:** Could you tell me which band COc1cccc(-c2nc(N)c3cc(CN4CCOCC4)sc3n2)c1 belongs to?
**A:** med

**Q:** Could you tell me which band Cc1ccc(-c2nc(N)c3cc(CN4CCOCC4)sc3n2)o1 belongs to?
**A:** lo

**Q:** Could you tell me which band CC(C)c1ccccc1-c1nc(N)c2cc(CN3CCC(F)CC3)sc2n1 belongs to?
**A:** hi

**Q:** Could you tell me which band Nc1nc(-c2ccc(Cl)o2)nc2sc(CN3CCCCCC3)cc12 belongs to?
**A:** lo

**Q:** Could you tell me which band Nc1nc(-c2cocn2)nc2sc(CN3CC=CCC3)cc12 belongs to?
**A:** med

**Q:** Could you tell me which band CC(C)c1ccc(-c2nc(N)c3cc(CN4CCOCC4)sc3n2)o1 belongs to?
**A:** hi

**Q:** Could you tell me which band N#Cc1cccc(-c2nc(N)c3cc(CN4CCOCC4)sc3n2)c1 belongs to?
**A:** lo

**Q:** Could you tell me which band Nc1nc(-c2ccc(C3CC3)o2)nc2sc(CN3CCOCC3)cc12 belongs to?
**A:** hi

**Q:** Could you tell me which band COc1cccc(-c2nc(N)c3cc(CN4CCSCC4)sc3n2)c1 belongs to?
**A:** med
